# assay-explanation: Serum Levels in Rhesus Monkey
# Type: in vivo, rhesus monkeys
# condition-description: 10 mg/kg oral, read-out: Peak level (serum)
Provide the reported Cmax of each item.
Numbers only, in ng/mL.

- molecule: "CCOC(=O)Cc1nc(-c2ccc(Cl)cc2)oc1Oc1ccc(Cl)cc1"
  recorded-value: 30000

Now let's try a different one.
Find the measured Cmax of CCOC(=O)Cc1nc(-c2ccc(Cl)cc2)oc1OCC [D, reference compound] and report it. 15000

* * *

Provide the reported Decrease (%) Cholesterol of each item.
# Tested on: Cholesterol and triglyceride in the serum
# assay-explanation: Hypolipidemic action: male rats with normolipidemia (serum cholesterol and triglyceride, oral, 5 days)
# Format: in vivo
# condition-description: Wistar rats, 100 mg/kg/day oral, control = 100%, * p<0.05 (all values starred)
Please format your answer as a value with the unit trailing.

Field: example entries. Status: answers known.
- compound: "CCOC(=O)Cc1nc(-c2ccc(Cl)cc2)oc1Oc1ccc(Cl)cc1 [Compound A]"
  target-under-test: "Cholesterol and triglyceride in the serum"
  Decrease (%) Cholesterol: "40%"
- compound: "CCOC(=O)Cc1nc(-c2ccc(Cl)cc2)sc1Sc1ccccc1 [C]"
  target-under-test: "Cholesterol and triglyceride in the serum"
  Decrease (%) Cholesterol: "40%"
- compound: "CCOC(=O)Cc1nc(-c2ccc(Cl)cc2)oc1OCC [D, reference compound]"
  target-under-test: "Cholesterol and triglyceride in the serum"
  Decrease (%) Cholesterol: "32%"

Below are 2 compounds. Give each one its Decrease (%) Cholesterol.
1. CCOC(=O)C(C)(C)Oc1ccc(Cl)cc1 [Clofibrate, reference compound]
2. O.O=C(O)Cc1nc(-c2ccc(Cl)cc2)oc1Oc1ccccc1 [B]

1. 32%
2. 37%

* * *

Provide the reported Increase (%) Liver Weight of each item.
# assay-explanation: Liver weight / hepatomegaly
# Format: in vivo, male Wistar rats
# condition-description: Wistar rats, 100 mg/kg/day oral, 5 days; * p<0.05 (only clofibrate starred)
Please format your answer as a value with the unit trailing.

Field: example entries. Status: answers known.
- molecule: "CCOC(=O)C(C)(C)Oc1ccc(Cl)cc1 [Clofibrate, reference compound]"
  Increase (%) Liver Weight: "17%"
- molecule: "CCOC(=O)Cc1nc(-c2ccc(Cl)cc2)sc1Sc1ccccc1"
  Increase (%) Liver Weight: "15%"
- molecule: "CCOC(=O)Cc1nc(-c2ccc(Cl)cc2)oc1OCC [D, reference compound]"
  Increase (%) Liver Weight: "5%"
- molecule: "CCOC(=O)Cc1nc(-c2ccc(Cl)cc2)oc1Oc1ccc(Cl)cc1"
  Increase (%) Liver Weight: "5%"

Find the measured Increase (%) Liver Weight of `O.O=C(O)Cc1nc(-c2ccc(Cl)cc2)oc1Oc1ccccc1` and report it. -6%

Origin of measurements: patent US4175130A
